# assay.details: Toxicity liver stage against HepG2, at 10uM
# Format: cell-based
# Set-up: test concentration 10 uM, cell line HepG2-A16-CD81EGFP
# particulars: human, HepG2-A16-CD81EGFP cells; read-out: INHIBITION
observation.type: cytotoxicity at 10 µM (%)
// note: answer is a bare numeric in %

Prompt: Provide cytotoxicity at 10 µM value for the following compound: "CC1(C)OCC2(CO1)CN(C(=O)c1ccccc1Br)C2"
Response: -7.31

Prompt: Provide cytotoxicity at 10 µM value for the following compound: "N#Cc1ccc(F)c(CNC(=O)NCCC(=O)NC2CCCC2)c1"
Response: -5.95

Prompt: Provide cytotoxicity at 10 µM value for the following compound: "Cn1nc2c(cc1=O)CN(Cc1coc(-c3ccccc3)n1)CC2"
Response: -4.5

Prompt: Provide cytotoxicity at 10 µM value for the following compound: COc1coc(CN2CCCC3(CCC(=O)N(CC4CC4)C3)C2)cc1=O (stereo unspecified)
Response: -34.4

Prompt: Provide cytotoxicity at 10 µM value for the following compound: "COc1cc(N2C[C@@H]3COC[C@@H](Cc4nnc(C)o4)[C@@H]3C2)ncn1"
Response: -112

Prompt: Provide cytotoxicity at 10 µM value for the following compound: Cc1cc(C)c(C(=O)N2CCOCC2c2c(C)n[nH]c2C)o1 (stereo unspecified)
Response: -4.01

Prompt: Provide cytotoxicity at 10 µM value for the following compound: c1ccc(CN2CCCC3(CCN(CC4CCCO4)CC3)C2)nc1 (stereo unspecified)
Response: -115

Prompt: Provide cytotoxicity at 10 µM value for the following compound: "O=C(NCc1cccnc1-n1cncn1)c1ccncc1"
Response: 5.91

Prompt: Provide cytotoxicity at 10 µM value for the following compound: "NC(=O)C1CCN(C(=O)CCn2ccc3ccc(F)cc32)CC1"
Response: -6.83

Prompt: Provide cytotoxicity at 10 µM value for the following compound: "NS(=O)(=O)c1ccc(F)c(C(=O)NCCSc2ccccn2)c1"
Response: -9.11

Prompt: Provide cytotoxicity at 10 µM value for the following compound: "Cc1cccnc1CN1CCN(c2noc(-c3ccccc3)n2)CC1"
Response: 8.09
